Biological target: Nonstructural protein 3 (Zika virus, UniProt A0A024AXB9)
Sequence (A0A024AXB9 whole entry): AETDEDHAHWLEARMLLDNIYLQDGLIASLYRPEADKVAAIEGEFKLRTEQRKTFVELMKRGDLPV
Assay: Functional biochemical assay to identify treatments for viral infectious disease that targets Zika NS2B-NS3 protease. Utilizing a direct enzyme activity measurement method, reading the fluorescence intensity is used to characterize the relative potency of inhibitors as IC50.
Design: species or system PRVABC59
Below, each entry is listed with its recorded IC50.

Check out these entries, answers already filled in.
Cc1[nH]c2ccccc2c1CN1CCC(c2c[nH]c3ncccc23)CC1
5.81 µM
C[C@@H]1CNC[C@H]1c1ccc(NC(=O)c2ccc3c(c2)SCCN3)cc1
> 99.5 µM
NCc1cccc(NC(=O)C[C@@H]2[C@H]3CC[C@H](C3)N2C(=O)OCc2ccccc2)c1
> 99.5 µM
Cc1c(C(=O)Nc2cc(C#N)cn(C)c2=O)cc(C2CC2)n1C
> 25 µM
C[C@@H](N)c1ccc(NC(=O)c2cc(Cl)cc(NC(=O)OCc3ccccc3)c2)cc1
14.6 µM
O=C(O)c1cc(Cl)ccc1S(=O)(=O)Nc1ccc(N2CCCS2(=O)=O)cc1
> 99.5 µM
NC[C@H]1CCN1C(=O)[C@@H](NC(=O)OCc1ccccc1)c1ccc(OCc2ccccc2)cc1
> 99.5 µM
CCn1cc(-c2ccccc2C(=O)OC)nc(N2CC[C@@H](CO)C2)c1=O
> 99.5 µM
Cc1ncc(NC(=O)OCc2ccccc2)cc1C(=O)Nc1cccc(CN)c1
> 99.5 µM

Continue with the next molecule.
Entry `c1ccc([C@H](NCc2c[nH]c3ccccc23)c2cccnc2)cc1` — recorded IC50 = > 99.5 µM

* * *

Target: UniProtKB A0A024AXB9
Experiment: Functional biochemical assay to identify treatments for viral infectious disease that targets Zika NS2B-NS3 protease. Utilizing a direct enzyme activity measurement method, reading the fluorescence intensity is used to characterize the relative potency of inhibitors as IC50.
Parameters: species or system PRVABC59
OUTCOME MEASURE: IC50

Cn1nc(C(=O)Nc2cc(CCCN)ccn2)cc1C1CC1
> 25 µM

Param item: `Cc1c(C(=O)Nc2cc(C(=O)N3CC[C@H](C(N)=O)C3)ccn2)cc(C2CC2)n1C` ; param system: UniProtKB A0A024AXB9; output IC50: > 25 µM

Param item: `O=C(Nc1cc(Cl)cc(S(=O)(=O)Nc2cccc(-n3nn[nH]c3=O)c2)c1)OCc1ccccc1` ; param system: UniProtKB A0A024AXB9; output IC50: > 99.5 µM

Param item: `O=C(O)c1cc(Cl)ccc1NS(=O)(=O)c1ccc(Nc2ccccc2F)nc1` ; param system: UniProtKB A0A024AXB9; output IC50: 46.7 µM

Param item: `Cc1c(C(=O)Nc2ccc3c(c2)CCS3(=O)=O)cc(C2CC2)n1C` ; param system: UniProtKB A0A024AXB9; output IC50: > 25 µM

* * *

Biological target: Nonstructural protein 3 (Zika virus)
Test: Functional biochemical assay to identify treatments for viral infectious disease that targets Zika NS2B-NS3 protease. Utilizing a direct enzyme activity measurement method, reading the fluorescence intensity is used to characterize the relative potency of inhibitors as IC50.
Parameters: species or system PRVABC59
Below, each entry is listed with its recorded pIC50.
Hey, just a heads up that pIC50 is the negative log base 10 of the concentration in molar.

COCCN(C)C(=O)[C@H](Nc1ccc2c(c1)CNC2)c1cc(Cl)cc(C2CC2)c1
5.92
Cc1cc(C(=O)Nc2ccc3c(c2)CNC3)cc2nc[nH]c12
6.92
O=C(Nc1cc(Cl)cc(C(=O)Nc2cccc([C@H]3CCCN3)c2)c1)OCc1ccccc1
4.56
Cc1c(C(=O)O)sc2ncc(Cc3c[nH]c4ccc(Cl)cc34)cc12
4.01

Continue with the next molecule.
Entry `Clc1cc(CNc2ccc3c(c2)CNC3)c2cn[nH]c2c1` — recorded pIC50 = 5.48
